# MEASUREMENT TARGET: GST-YY1 (Homo sapiens, UniProt P25490 1-414)
# Sequence (P25490 whole entry): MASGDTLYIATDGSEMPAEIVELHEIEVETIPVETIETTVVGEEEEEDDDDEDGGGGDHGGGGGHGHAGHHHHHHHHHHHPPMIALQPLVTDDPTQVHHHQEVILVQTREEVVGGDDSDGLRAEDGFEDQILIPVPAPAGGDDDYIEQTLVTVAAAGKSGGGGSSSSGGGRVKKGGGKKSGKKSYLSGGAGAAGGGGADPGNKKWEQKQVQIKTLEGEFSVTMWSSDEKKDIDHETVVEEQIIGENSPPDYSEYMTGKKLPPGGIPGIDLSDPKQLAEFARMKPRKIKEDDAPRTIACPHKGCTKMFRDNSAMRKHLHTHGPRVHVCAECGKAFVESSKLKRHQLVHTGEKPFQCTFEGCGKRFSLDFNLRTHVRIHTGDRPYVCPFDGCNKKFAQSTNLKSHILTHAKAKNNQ
# MEASUREMENT DESCRIPTION: fluorescence anisotropy
REPORTED PROPERTY: Kd (nM)
// units = nM; emit number, no label

So for YY1 consensus motif duplex (dsDNA) DNA 1: TCCACGGCAGCCGCCATCTTGGCT DNA 2: AGCCAAGATGGCGGCTGCCGTGGA , the logged Kd turned out to be 11.6
